- experimental_protocol: CD spectroscopy, secondary structure content (DichroWeb)
- Assay type: physicochemical
- measurement_setup: CD in water, peptide 50 μM, 25 °C, DichroWeb
Bridge positions count the residues as written; N and C are the ends. Square brackets hold non-standard residues; d marks the D form. Peptide text beside a SMILES is read from it.
Kindly supply the reported helix-2 (distorted α-helix) values for the records listed here.
Give bare numbers, in %.

The following molecules have reported results that may help.
{"molecule": "CC[C@H](C)[C@H](NC(=O)[C@H](CCCNC(=N)N)NC(=O)[C@@H]1CCCCn2cc(nn2)C[C@H](NC(=O)[C@H](Cc2ccccc2)NC(=O)[C@H](Cc2c[nH]c3ccccc23)NC(=O)[C@@H]2CCCN2C(=O)[C@@H](NC(=O)[C@@H](N)Cc2ccccc2)C(C)C)C(=O)N[C@@H](CCCCN)C(=O)N[C@@H](Cc2ccccc2)C(=O)NC(CC(C)C)C(=O)N1)C(=O)N[C@@H](CC(C)C)C(N)=O (stereo in doubt)", "helix-2 (distorted α-helix) / %": 4}
{"molecule": "CC[C@H](C)[C@H](NC(=O)[C@H](CCCNC(=N)N)NC(=O)[C@]1(C)CCCC=CCCC[C@](C)(NC(=O)[C@H](Cc2ccccc2)NC(=O)[C@H](Cc2c[nH]c3ccccc23)NC(=O)[C@@H]2CCCN2C(=O)[C@@H](NC(=O)[C@@H](N)Cc2ccccc2)C(C)C)C(=O)N[C@@H](CCCCN)C(=O)N[C@@H](Cc2ccccc2)C(=O)N[C@H](CC(C)C)C(=O)N1)C(=O)N[C@@H](CC(C)C)C(N)=O", "helix-2 (distorted α-helix) / %": 10}

Batch request: helix-2 (distorted α-helix) per item, same order as input.
1. CC[C@H](C)[C@H](NC(=O)[C@H](CCCNC(=N)N)NC(=O)[C@@H]1CCCCNC(=O)CC[C@H](NC(=O)[C@H](Cc2ccccc2)NC(=O)[C@H](Cc2c[nH]c3ccccc23)NC(=O)[C@@H]2CCCN2C(=O)[C@@H](NC(=O)[C@@H](N)Cc2ccccc2)C(C)C)C(=O)N[C@@H](CCCCN)C(=O)N[C@@H](Cc2ccccc2)C(=O)N[C@H](CC(C)C)C(=O)N1)C(=O)N[C@@H](CC(C)C)C(N)=O [compound 24] (H-FVPWFEKF[dL]KRIL-NH2; lactam 6-10)
2. CC[C@H](C)[C@H](NC(=O)[C@H](CCCNC(=N)N)NC(=O)[C@@H]1CCC(=O)NCCCC[C@H](NC(=O)[C@H](Cc2ccccc2)NC(=O)[C@H](Cc2c[nH]c3ccccc23)NC(=O)[C@@H]2CCCN2C(=O)[C@@H](NC(=O)[C@@H](N)Cc2ccccc2)C(C)C)C(=O)N[C@@H](CCCCN)C(=O)N[C@@H](Cc2ccccc2)C(=O)N[C@H](CC(C)C)C(=O)N1)C(=O)N[C@@H](CC(C)C)C(N)=O [compound 12] (H-FVPWFKKF[dL]ERIL-NH2; lactam 6-10)

A:
1: 6; 2: 2

----------
What random was measured for each of the following?
- experimental_protocol: CD spectroscopy, secondary structure content (DichroWeb)
- Assay type: physicochemical
- measurement_setup: CD in DPC micelles (20 mM), peptide 50 μM, 25 °C, DichroWeb
Bridge positions count the residues as written; N and C are the ends. Square brackets hold non-standard residues; d marks the D form. Peptide text beside a SMILES is read from it.
Numbers only, in %.

{"compound": "CC[C@H](C)[C@H](NC(=O)[C@H](CCCNC(=N)N)NC(=O)[C@@H]1CCC(=O)NCCCC[C@H](NC(=O)[C@H](Cc2ccccc2)NC(=O)[C@H](Cc2c[nH]c3ccccc23)NC(=O)[C@@H]2CCCN2C(=O)[C@@H](NC(=O)[C@@H](N)Cc2ccccc2)C(C)C)C(=O)N[C@@H](CCCCN)C(=O)N[C@@H](Cc2ccccc2)C(=O)N[C@H](CC(C)C)C(=O)N1)C(=O)N[C@@H](CC(C)C)C(N)=O [compound 12] (H-FVPWFKKF[dL]ERIL-NH2; lactam 6-10)", "units_symbol": "%", "random": 13}
{"compound": "CC[C@H](C)[C@H](NC(=O)[C@H](CCCNC(=N)N)NC(=O)[C@@H]1CCCCn2cc(nn2)C[C@H](NC(=O)[C@H](Cc2ccccc2)NC(=O)[C@H](Cc2c[nH]c3ccccc23)NC(=O)[C@@H]2CCCN2C(=O)[C@@H](NC(=O)[C@@H](N)Cc2ccccc2)C(C)C)C(=O)N[C@@H](CCCCN)C(=O)N[C@@H](Cc2ccccc2)C(=O)NC(CC(C)C)C(=O)N1)C(=O)N[C@@H](CC(C)C)C(N)=O (stereo in doubt) [compound 17]", "units_symbol": "%", "random": 19}
{"compound": "CC[C@H](C)[C@H](NC(=O)[C@H](CCCNC(=N)N)NC(=O)[C@@H]1CCCCNC(=O)CC[C@H](NC(=O)[C@H](Cc2ccccc2)NC(=O)[C@H](Cc2c[nH]c3ccccc23)NC(=O)[C@@H]2CCCN2C(=O)[C@@H](NC(=O)[C@@H](N)Cc2ccccc2)C(C)C)C(=O)N[C@@H](CCCCN)C(=O)N[C@@H](Cc2ccccc2)C(=O)N[C@H](CC(C)C)C(=O)N1)C(=O)N[C@@H](CC(C)C)C(N)=O [compound 24] (H-FVPWFEKF[dL]KRIL-NH2; lactam 6-10)", "units_symbol": "%", "random": 0}

Consider the additional compound presented here.
Q: Please report the recorded random for CC[C@H](C)[C@H](NC(=O)[C@H](CCCNC(=N)N)NC(=O)[C@]1(C)CCCC=CCCC[C@](C)(NC(=O)[C@H](Cc2ccccc2)NC(=O)[C@H](Cc2c[nH]c3ccccc23)NC(=O)[C@@H]2CCCN2C(=O)[C@@H](NC(=O)[C@@H](N)Cc2ccccc2)C(C)C)C(=O)N[C@@H](CCCCN)C(=O)N[C@@H](Cc2ccccc2)C(=O)N[C@H](CC(C)C)C(=O)N1)C(=O)N[C@@H](CC(C)C)C(N)=O [compound 25] .
A: 0
